assayed system: recombinant human SOS1 polypeptide (amino acids 560-1049) (Homo sapiens (Human))
Sequence (Q07889 560-1049): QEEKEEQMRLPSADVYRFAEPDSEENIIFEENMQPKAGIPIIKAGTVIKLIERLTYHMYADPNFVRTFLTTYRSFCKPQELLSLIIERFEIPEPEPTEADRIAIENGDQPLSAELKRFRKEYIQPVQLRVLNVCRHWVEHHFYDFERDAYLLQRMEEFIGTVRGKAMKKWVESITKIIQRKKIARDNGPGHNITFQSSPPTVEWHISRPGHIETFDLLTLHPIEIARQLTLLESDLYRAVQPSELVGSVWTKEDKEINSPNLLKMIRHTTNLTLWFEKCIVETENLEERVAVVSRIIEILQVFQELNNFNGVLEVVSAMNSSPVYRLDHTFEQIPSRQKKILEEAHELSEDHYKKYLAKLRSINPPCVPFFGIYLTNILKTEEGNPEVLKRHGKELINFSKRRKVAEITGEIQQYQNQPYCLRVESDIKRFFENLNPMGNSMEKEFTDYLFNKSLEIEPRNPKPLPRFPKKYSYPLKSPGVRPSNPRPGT
test summary: biochemical
Assay type: binding
assay context: HTRF displacement, Cy5 labelled tracer, Morrison equation for competitive binding; read-out: Ki, Inhibition of Labeled Tracer Binding to SOS1
pKi: −log10 of the molar value.
# pKi >= 8 gives true (1), anything below gives false (0)

{"columns": ["compound", "class label"],
 "data": [
  ["Cc1c([C@@H](C)Nc2nncc3ccc(N4CCC5CCN(C)C5C4)cc23)cccc1C(F)(F)F (stereo partly drawn)", "true (1)"],
  ["Cc1c([C@@H](C)Nc2nnc(C)c3ccc(N4CCN(C)CC4)cc23)cccc1C(F)(F)F", "true (1)"],
  ["Cc1cccc(C(C)Nc2nnc(C)c3ccc(N4CCOCC4)cc23)c1Cl (stereo not drawn)", "true (1)"],
  ["Cc1c([C@@H](C)Nc2nnc(C)c3cnc(N4CCC(N5CCC5)CC4)cc23)cccc1C(F)(F)F", "true (1)"],
  ["Cc1nnc(N[C@H](C)c2cccc(F)c2F)c2cc(N3CC4CC(C3)O4)ncc12", "false (0)"],
  ["Cc1nnc(N[C@H](C)c2cc(N)cc(C(F)(F)F)n2)c2cc(N3CC4CC(C3)O4)ncc12", "false (0)"],
  ["CCN1CCN(c2cc3c(N[C@H](C)c4cccc(C#N)c4C)nnc(C)c3cn2)CC1", "true (1)"],
  ["Cc1c([C@@H](C)Nc2nnc(C)c3ccc(N4CCN(c5cnn(C)c5)CC4)cc23)cccc1C(F)(F)F", "true (1)"],
  ["Cc1nnc(N[C@H](C)c2cccc(C(F)F)c2F)c2cc(N3CC(C)(O)C3)ncc12", "true (1)"],
  ["Cc1c([C@@H](C)Nc2nnc(C)c3cnc(N4CCC(C)(O)CC4)cc23)cccc1C(F)(F)F", "true (1)"],
  ["Cc1nnc(N[C@H](C)c2cccc(C(F)(F)F)c2F)c2cc(N3CCOCC3)ccc12", "true (1)"],
  ["Cc1c([C@@H](C)Nc2nnc(C)c3cnc(N4CCN5CCOC[C@@H]5C4)cc23)cccc1C(F)(F)F", "true (1)"],
  ["Cc1nnc(N[C@H](C)c2cc(F)cc(C#N)c2F)c2cc(N3CCN4CCOC[C@@H]4C3)ncc12", "false (0)"],
  ["Cc1c(C#N)cc(F)cc1[C@@H](C)Nc1nnc(C)c2cnc(N3CC(C)(N(C)C)C3)cc12", "false (0)"],
  ["Cc1c([C@@H](C)Nc2nnc(C)c3ccc(N4CCNCC(F)C4)cc23)cccc1C(F)(F)F (stereo partly drawn)", "true (1)"],
  ["Cc1c(C#N)cccc1[C@@H](C)Nc1nnc(C)c2ccc(N3CC(C)(O)C3)cc12", "true (1)"],
  ["Cc1nnc(N[C@H](C)c2cc(F)cc(C(F)(F)F)c2)c2cc(N3CCOCC3)ncc12", "true (1)"],
  ["Cc1c([C@@H](C)Nc2nnc(C)c3ccc(OC4CNC4)cc23)cccc1C(F)(F)F", "true (1)"],
  ["Cc1nnc(N[C@H](C)c2cccc(C(F)(F)C(C)(C)O)c2F)c2cc(N3CCN4CCOC[C@@H]4C3)ncc12", "true (1)"],
  ["Cc1c([C@@H](C)Nc2nnc(C)c3ccc(N4C[C@H]5CC[C@@H]4CN5C)cc23)cccc1C(F)(F)F", "true (1)"],
  ["Cc1c(C#N)cccc1[C@@H](C)Nc1nnc(C)c2cnc(N3CCC(F)(F)CC3)cc12", "true (1)"],
  ["Cc1c(F)cccc1[C@@H](C)Nc1nnc(C)c2cnc(N3CC(C)(N(C)C)C3)cc12", "false (0)"],
  ["Cc1nnc(N[C@H](C)c2cc(N)c(F)c(C(F)(F)F)c2)c2cc(N3C[C@H]4C[C@@H]3CO4)ccc12", "true (1)"]
]}
